assay: soluble on expression in E. coli; label from the status in PepcDB or PDB records
Parameter Measured: soluble on expression in E. coli

Residue Codes: GPGSMRSTAPLFMAQGIWAGFRYYLGHFFYPNMYREYLSVQNAHKIERALRIQTAIKANRVDYRALLALPVTDHAHPYKMEYPWEKVINTDKSKLSGYGKWYASKIMCFYEGLQYHKYGCLQDDLINAHGWWNRAARTRAPQDKIVHGDRRVMRARVLRDKYIYEPKSRWVHPIDNVAYFGPYVMMVCDEWEEKWGFFAGQEVEY
Parameter Measured: soluble on expression in E. coli
Measured: not soluble
--
Residue Codes: MGSDKIHHHHHHMGKVYVIGNFKGGVGKTKTVTMLAYESALQLGRKTLVIDLDPQGNATRVLAKTGDLAEITYTVTEAFQEGSLEPAITNISENLDLIPANTAFRNLTKILMTKFPSNEFDQINYLNTLLKPLKEKYDAIYIDVPPTISDFSDNAMLAADYCIIVLQTQELSLDGAQTYIAYMQYLADTYDNDLQVLGIIPCMLRPGGRVDNKVLEQAKELYGGNVLNTVVKYQERLKVYDVEGIKISHNYTGKADGWDVKAHKVFIDVLNELDQHQLVLEELEG
Parameter Measured: soluble on expression in E. coli
Measured: not soluble
--
Residue Codes: KRAVDARTVGRMIRMSGCPDESASAKAVDWFVLMFMLRGIPFVDLAHLRRSNLDKGVLTYCRHKTGQEVSISVPREAMEIINRRMVENCHPSYLLPILGQPRTRKRHTKKALTPYQEYQYALRNLNRRLERVSVDLRLGGRLSSYTARHTWATIAFHQETPVGVISRGLGHSSVKVTETYLKPFGDREVDRTNRKILNYVLNAV
Parameter Measured: soluble on expression in E. coli
Measured: not soluble
